B1: Far upstream element-binding protein 1, residues 184 to 257; numbered along this chain, Q96AE4 (parent)
chain: GNAVQEIMIPASKAGLVIGKGGETIKQLQERAGVKMVMIQDGPQNTGADKPLRITGDPYKVQQAKEMVLELIRD

Variants of: B1
Assay: abundance fitness (aPCA) (normalised: wild type 0, dead -1); higher = more abundant; growth selection in yeast, the domain comes from the species named
Settings: Homo sapiens
I'd appreciate it if you could supply abundance fitness values for the items below.
The reply should be a number, written without any unit.

Reported abundance fitness ( G21D ) = -0.024

Reported abundance fitness ( L52C ) = -0.229

Reported abundance fitness ( K20M ) = -0.112

Reported abundance fitness ( E30K ) = -0.01

Reported abundance fitness ( R73K ) = 0.015

Reported abundance fitness ( G33S ) = -0.123

Reported abundance fitness ( M67L ) = -0.053

Reported abundance fitness ( L71M ) = -0.031

Reported abundance fitness ( M36R ) = -0.747

Reported abundance fitness ( D74Y ) = -0.197

Reported abundance fitness ( K65F ) = -0.241

Reported abundance fitness ( L69H ) = -0.073

Reported abundance fitness ( A32K ) = -0.171

Reported abundance fitness ( P43K ) = 0.064
